target-desc: human recombinant PAK1-KD protein (Homo sapiens)
test-name: PAK1-KD (Kinase Domain) IC50 Zlyte Assay (FRET peptide substrate phosphorylation)
condition: Z'-LYTE, Biological Example 1
result-type: pKi
Give bare numbers, as −log10 of the molar value.

Examples with answers:
CCNc1ncc2cc(-c3ccc(-c4cccc(C)n4)cc3Cl)c(=O)n(CCOCCN)c2n1 [Example I-64]    8.55
CNc1ncc2cc(-c3ccc(-c4cncc(C)n4)cc3Cl)c(=O)n(CC(=O)NCCN)c2n1 [Example I-156]    7.84
CNc1ncc2cc(-c3ccc(-c4cccc(C)n4)cc3C)c(=O)n(CCCO)c2n1 [Example I-132]    7.84
CNc1ncc2cc(-c3ccc(-c4cccc(C)n4)cc3Cl)c(=O)n(C[C@@H]3CNCCO3)c2n1 [Example I-173]    7.89
CNc1ncc2cc(-c3ccc(-c4cccc(CO)n4)cc3Cl)c(=O)n(C[C@@H]3CNCCO3)c2n1 [Example I-195]    7.45

Lab note: each compound below needs its pKi filled in.
1. CNc1ncc2cc(-c3ccc(-c4cncc(C)n4)cc3Cl)c(=O)n(CC(=O)N3CCNCC3)c2n1 [Example I-84]
2. CCNc1ncc2cc(-c3ccc(-c4cncc(C)n4)cc3Cl)c(=O)n(CCOC3CCCNC3)c2n1 (stereo not shown) [Example I-14]

Response line:
1: 7.23; 2: 7.83

====

target-desc: human recombinant PAK1-KD protein (Homo sapiens, UniProt Q13153)
Sequence (Q13153 270-521 limits assumed): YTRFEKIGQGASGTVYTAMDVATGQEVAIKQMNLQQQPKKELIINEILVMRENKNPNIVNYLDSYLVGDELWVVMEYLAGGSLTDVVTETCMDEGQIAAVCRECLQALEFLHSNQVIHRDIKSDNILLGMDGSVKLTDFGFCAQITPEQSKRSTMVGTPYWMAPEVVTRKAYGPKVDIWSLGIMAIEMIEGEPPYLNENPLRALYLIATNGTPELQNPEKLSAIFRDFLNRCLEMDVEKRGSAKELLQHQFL
test-name: PAK1-KD (Kinase Domain) IC50 Zlyte Assay (FRET peptide substrate phosphorylation)
condition: Z'-LYTE, Biological Example 1
Could you please report measured log10 of Ki for the items listed next?
All values: log10 Ki [nM].

Examples with answers:
CCNc1ncc2cc(-c3ccc(-c4cncc(C)n4)cc3Cl)c(=O)n(CCOC3CCNC3)c2n1 (stereo not shown) [Example I-13]    0.76
CNc1ncc2cc(-c3ccc(-c4csc(C)n4)cc3Cl)c(=O)n(C[C@H]3OC[C@H](N)CO3)c2n1    1.18
Cc1cccc(-c2ccc(-c3cc4cnc(NC(C)C)nc4n(CC(=O)N4CCNCC4)c3=O)c(Cl)c2)n1    0.62
Cc1cccc(-c2ccc(-c3cc4cnc(NC5COC5)nc4n(CCOCCN)c3=O)c(Cl)c2)n1    -0.52
Cc1cccc(-c2ccc(-c3cc4cnc(NC(C)C)nc4n(CC(=O)N4CCNCC4)c3=O)c(C)c2)n1    1.20

Lab note: each compound below needs its log10 of Ki filled in.
1. CCNc1ncc2cc(-c3ccc(-c4cncc(C)n4)cc3Cl)c(=O)n(C(C)COC3CNC3)c2n1 (single isomer, unassigned) [Example I-118]
2. CCNc1ncc2cc(-c3ccc(-c4cncc(C)n4)cc3Cl)c(=O)n(C(C)COC3CNC3)c2n1 (single isomer, unassigned) [Example I-119]

Response line:
1.26
1.89

====

Tested on: group I PAKs in EBC1 cells (MEK1 phosphorylation at S298)
test-name: Cellular PAK IC50 Assay: MEK1 phosphorylation at S298 by HTRF
Assay type: cell-based
condition: Homo sapiens, EBC-1, 2 h treatment, media containing 0.1% FBS, phospho-MEK1 (S298) HTRF
result-type: IC50 (nM)
One number for each entry, in nM.

CCNc1ncc2cc(-c3ccc(-c4cccc(C)n4)cc3Cl)c(=O)n(C[C@H]3CC[C@H](N)CC3)c2n1    46.8
CCNc1ncc2cc(-c3ccc(-c4cccc(C)n4)cc3C)c(=O)n(CCCC(N)=O)c2n1    289
CCNc1ncc2cc(-c3ccc(-c4cncc(C)n4)cc3Cl)c(=O)n(CCC3CNCCO3)c2n1 (single isomer, unassigned)    63.5
CCNc1ncc2cc(-c3ccc(-c4cncc(C)n4)cc3Cl)c(=O)n(C3COC4(CCNC4)C3)c2n1 (stereo not shown)    197
CCNc1ncc2cc(-c3ccc(-c4cncc(C)n4)cc3Cl)c(=O)n(CCCCN)c2n1    146

Lab note: each compound below needs its IC50 filled in.
1. Cc1cccc(-c2ccc(-c3cc4cnc(NC5COC5)nc4n(CCOCCN)c3=O)c(C)c2)n1
2. CNc1ncc2cc(-c3ccc(-c4cncc(C)n4)cc3Cl)c(=O)n(CCCN)c2n1

Response line:
1: 83.5; 2: 508
